Tested on: Fibroblast
Assay: Multiplex assay against human fibroblast
Type: toxicity, cell-based
Conditions: 12 h, 10 µM, compound concentration 10 uM, replicate 1
Tag: condition met if measured Population Mitotic Cells (%) is not below 50%, condition not met if it is.

Here's what some known entries look like.
COc1cc2nc(N3CCN(C(=O)c4ccco4)CC3)nc(N)c2cc1OC.Cl [PRAZOSIN HYDROCHLORIDE]    condition met
O=c1ccc2ccc(OCCCCN3CCN(c4cccc5sccc45)CC3)cc2[nH]1    condition not met

### Prompt I'd appreciate it if you could say whether O=C(NCCNCC(O)COc1ccc(O)cc1)N1CCOCC1.O=C(NCCNCC(O)COc1ccc(O)cc1)N1CCOCC1.O=C(O)/C=C/C(=O)O (stereo not drawn) [XAMOTEROL FUMARATE] has Population Mitotic Cells (%) at least equal to 50%.
### Response condition met

### Prompt Could you please find out whether COc1c(Nc2ccc(S(C)(=O)=O)nc2C)ncnc1OC1CCN(C(=O)OC(C)C)CC1 has Population Mitotic Cells (%) that meets 50% or exceeds it?
### Response condition met

### Prompt Quick check: does CN1CCN2c3ccccc3Cc3ccccc3C2C1.Cl (stereo not drawn) [MIANSERIN HYDROCHLORIDE] have Population Mitotic Cells (%) greater than or equal to 50%?
### Response condition not met

### Prompt API: above_or_equal(metric=Population Mitotic Cells (%), cutoff=50%) for item CN1CCC(C(=O)c2cccc(NC(=O)c3c(F)cc(F)cc3F)n2)CC1
### Response condition met

### Prompt API: above_or_equal(metric=Population Mitotic Cells (%), cutoff=50%) for item CC(C)(C)c1ccc(CSc2cnn(C(C)(C)C)c(=O)c2Cl)cc1
### Response condition met

====

Tested on: U2OS
Assay: Multiplex assay against U2OS
Format: toxicity, cell-based
Details: human, 24 h, 1 µM, compound concentration 1 uM, replicate 1
Let's look at some compounds and their measured Population Healthy Nuclei (%).
The answer is to be given in %; state only the numeric part.

Worked cases, Population Healthy Nuclei (%) given:
COc1cc(OC2CCN(C(C)=O)CC2)ccc1C(=O)N1CCC(N2C(=O)OCc3ccccc32)CC1    71
Nc1nc(CC(=O)Nc2ccc(CCNC[C@H](O)c3ccccc3)cc2)cs1    70
COc1cc2nc(N3CCN(C(=O)c4ccco4)CC3)nc(N)c2cc1OC.Cl [PRAZOSIN HYDROCHLORIDE]    69
O=C(Nc1cc(-c2ccccc2)nn1-c1ccccc1F)c1ccc([N+](=O)[O-])cc1    68
Cc1nn(C)c2nc(NNC(=O)Nc3cc(Cl)nc(Cl)c3)cc(C(C)C)c12    71

### Prompt Consider the compound CC(C)(O)C(=O)N1CCN(c2ccc(C(F)(F)F)c(C3=C(c4c[nH]c5ccccc45)C(=O)NC3=O)c2)CC1 and give its measured Population Healthy Nuclei (%).
### Response 61

### Prompt What Population Healthy Nuclei (%) value was documented for this compound, C[C@H](NC(=O)CNC(=O)c1cccc(Cl)c1)c1ccccc1 ?
### Response 71

### Prompt May I ask what Population Healthy Nuclei (%) has been recorded for CC(C)C[C@H](CO)Nc1nc(S[C@@H](C)c2ccccc2)nc2nc(N)sc12 ?
### Response 68

### Prompt Which measured Population Healthy Nuclei (%) value corresponds to N[C@](CC1c2ccccc2Oc2ccccc21)(C(=O)O)[C@H]1C[C@@H]1C(=O)O ?
### Response 70

### Prompt Name the recorded Population Healthy Nuclei (%) for CCn1c(-c2nc3cc(C(=O)N4CCCC(N)C4)ccc3n2C)cc2ccccc21.Cl (stereo not given) .
### Response 68

====

Test system: HEK-293T
Assay: Multiplex assay against HEK293T
Format: toxicity, cell-based
Conditions: human, 24 h, 10 µM, compound concentration 10 uM, replicate 1
Measurement label: Population Healthy Nuclei (%)
Write down the numeric answer in % and omit the unit.

Cc1cc(=O)n(C)c2cc(N3C(=O)CC[C@H](NS(=O)(=O)CC(C)C)[C@H]3c3ccc(Cl)cc3)ccc12    72
O=C(Nc1cc(-c2ccccc2)nn1-c1ccccc1F)c1ccc([N+](=O)[O-])cc1    77
O=C(O)CCC/C=C\CC1C(O)CC(O)C1/C=C/C(O)COc1cccc(Cl)c1 (stereo not drawn) [CLOPROSTENOL]    78
C[C@H](NC(=O)CNC(=O)c1cccc(Cl)c1)c1ccccc1    77
CC(F)(F)CN1CCOc2c(nn(-c3ccccc3Cl)c2-c2ccc(Cl)cc2)C1=O    76

### Prompt What does the record list as Population Healthy Nuclei (%) for C[C@@H]1CC(=O)Nc2cccc(-c3ccc4c(c3)c(-c3cnn(C)c3)nn4C)c2N1 ?
### Response 76

### Prompt Return reported Population Healthy Nuclei (%); argument: CCc1nn2c(C)cc(C)nc2c1Cc1ccc(-c2nnc(C3CCNCC3)o2)cc1
### Response 72

### Prompt Value lookup for Population Healthy Nuclei (%); key = COc1cc(Nc2ncc3c(n2)-c2ccc(Cl)cc2C(c2c(F)cccc2OC)=NC3)ccc1C(=O)O [ALISERTIB]
### Response 74

====

Listing of recorded Population Hoechst High Intensity Objects (%) by entry.
Test system: U2OS
Assay: Multiplex assay against U2OS
Format: toxicity, cell-based
Conditions: human, 24 h, 1 µM, compound concentration 1 uM, replicate 1
Field: numeric (%). Do not append units.

Use the examples below as a reference point.
COCCCN1CCC(NC(=O)c2cc(Cl)c(N)c3c2OCC3)CC1 [PRUCALOPRIDE]    2
CCc1nn2c(C)cc(C)nc2c1Cc1ccc(-c2nnc(C3CCNCC3)o2)cc1    2
Nc1nc(CC(=O)Nc2ccc(CCNC[C@H](O)c3ccccc3)cc2)cs1    2

### Prompt Reported Population Hoechst High Intensity Objects (%), compound CCC(=O)OCC(=O)[C@@]1(OC(=O)CC)[C@@H](C)C[C@H]2[C@@H]3CCC4=CC(=O)C=C[C@]4(C)[C@@]3(Cl)[C@@H](O)C[C@@]21C [BECLOMETHASONE DIPROPIONATE] : ____
### Response 2

### Prompt What measured Population Hoechst High Intensity Objects (%) goes with Cn1cc(C(=O)OCC2CCN(CCNS(C)(=O)=O)CC2)c2ccccc21 ?
### Response 2

### Prompt Could you tell me which Population Hoechst High Intensity Objects (%) is on file for C[C@@H]1CC(=O)Nc2cccc(-c3ccc4c(c3)c(-c3cnn(C)c3)nn4C)c2N1 ?
### Response 2

====

System: HEK-293T
Assay: Multiplex assay against HEK293T
Type: toxicity, cell-based
Details: human, 48 h, 10 µM, compound concentration 10 uM, replicate 2
Measurement label: Population Mitochondria Different-Phenotype (%)
Give a bare numeral; the unit % is implied.

Worked cases, answers included:
COc1c(Nc2ccc(S(C)(=O)=O)nc2C)ncnc1OC1CCN(C(=O)OC(C)C)CC1 [ADP-597]    32
COc1ccc2c(c1OCc1ccccc1)C[C@@H](C(=O)O)N(C(=O)C(c1ccccc1)c1ccccc1)C2 [OLODANRIGAN]    32
COCCn1c(C)c(C)s/c1=N\C(=O)C1C(C)(C)C1(C)C    46
COc1cc2nc(N3CCN(C(=O)COc4c(OC)cccc4C(C)C)CC3)nc(N)c2cc1OC.Cl.Cl    49
C=CCN1C[C@H](C(=O)N(CCCN(C)C)C(=O)NCC)C[C@@H]2c3cccc4[nH]cc(c34)C[C@H]21 [CABERGOLINE]    32
COc1cc(OC2CCN(C(C)=O)CC2)ccc1C(=O)N1CCC(N2C(=O)OCc3ccccc32)CC1    39

Turning now to a further record.
### Prompt Notebook: pull reported Population Mitochondria Different-Phenotype (%) for HEK-293T, entry CN1C[C@H](C(=O)N[C@]2(C)O[C@@]3(O)[C@@H]4CCCN4C(=O)[C@H](Cc4ccccc4)N3C2=O)C[C@@H]2c3cccc4[nH]cc(c34)C[C@H]21.CS(=O)(=O)O [DIHYDROERGOTAMINE MESYLATE]
### Response 21

====

System: Fibroblast
Assay: Multiplex assay against human fibroblast
Type: toxicity, cell-based
Settings: 12 h, 10 µM, compound concentration 10 uM, replicate 2
Measurement label: Population Membrane Permeable-Phenotype (%)
Your answer should be a plain number; it is taken to be in %.

### Prompt Entry OCCCNc1cc(-c2ccnc(Nc3cccc(Cl)c3)n2)ccn1 : reported Population Membrane Permeable-Phenotype (%) = ?
### Response 20

### Prompt Population Membrane Permeable-Phenotype (%) for O=C(NCCNCC(O)COc1ccc(O)cc1)N1CCOCC1.O=C(NCCNCC(O)COc1ccc(O)cc1)N1CCOCC1.O=C(O)/C=C/C(=O)O (centres undefined) [XAMOTEROL FUMARATE] ?
### Response 4

### Prompt For the compound O=c1ccc2ccc(OCCCCN3CCN(c4cccc5sccc45)CC3)cc2[nH]1 [BREXPIPRAZOLE] , what Population Membrane Permeable-Phenotype (%) is on record?
### Response 2

### Prompt Endpoint output: Population Membrane Permeable-Phenotype (%) of CC(C)(C)c1ccc(CSc2cnn(C(C)(C)C)c(=O)c2Cl)cc1 [PYRIDABEN] . Value?
### Response 12

### Prompt Given Cc1cc(O)c(-c2ccc([C@@H](C)CN(C)C)cc2)c2c1[nH]c(=O)c1sccc12 , state its recorded Population Membrane Permeable-Phenotype (%).
### Response 2

### Prompt Which value of Population Membrane Permeable-Phenotype (%) has been reported for CC(C)C[C@H](CO)Nc1nc(S[C@@H](C)c2ccccc2)nc2nc(N)sc12 [AZD-8797] in the records?
### Response 10

### Prompt Tell me the measured Population Membrane Permeable-Phenotype (%) of COc1cc(Nc2ncc3c(n2)-c2ccc(Cl)cc2C(c2c(F)cccc2OC)=NC3)ccc1C(=O)O [ALISERTIB] , please.
### Response 4

### Prompt Query (compound): Nc1nc(-c2ccco2)c2cnn(Cc3ccccc3F)c2n1 ; field requested: Population Membrane Permeable-Phenotype (%)
### Response 5

### Prompt What does the data say about its Population Membrane Permeable-Phenotype (%)? Entry: CCCCC[C@H](O)/C=C/[C@H]1[C@H](O)CC(=O)[C@@H]1CCCCCCC(=O)O [ALPROSTADIL]
### Response 11

Origin of measurements: ChEMBL document CHEMBL5058577
